What PBM E-score was measured for each of the following?
Target: Pdr3 (UniProt P33200)
Sequence: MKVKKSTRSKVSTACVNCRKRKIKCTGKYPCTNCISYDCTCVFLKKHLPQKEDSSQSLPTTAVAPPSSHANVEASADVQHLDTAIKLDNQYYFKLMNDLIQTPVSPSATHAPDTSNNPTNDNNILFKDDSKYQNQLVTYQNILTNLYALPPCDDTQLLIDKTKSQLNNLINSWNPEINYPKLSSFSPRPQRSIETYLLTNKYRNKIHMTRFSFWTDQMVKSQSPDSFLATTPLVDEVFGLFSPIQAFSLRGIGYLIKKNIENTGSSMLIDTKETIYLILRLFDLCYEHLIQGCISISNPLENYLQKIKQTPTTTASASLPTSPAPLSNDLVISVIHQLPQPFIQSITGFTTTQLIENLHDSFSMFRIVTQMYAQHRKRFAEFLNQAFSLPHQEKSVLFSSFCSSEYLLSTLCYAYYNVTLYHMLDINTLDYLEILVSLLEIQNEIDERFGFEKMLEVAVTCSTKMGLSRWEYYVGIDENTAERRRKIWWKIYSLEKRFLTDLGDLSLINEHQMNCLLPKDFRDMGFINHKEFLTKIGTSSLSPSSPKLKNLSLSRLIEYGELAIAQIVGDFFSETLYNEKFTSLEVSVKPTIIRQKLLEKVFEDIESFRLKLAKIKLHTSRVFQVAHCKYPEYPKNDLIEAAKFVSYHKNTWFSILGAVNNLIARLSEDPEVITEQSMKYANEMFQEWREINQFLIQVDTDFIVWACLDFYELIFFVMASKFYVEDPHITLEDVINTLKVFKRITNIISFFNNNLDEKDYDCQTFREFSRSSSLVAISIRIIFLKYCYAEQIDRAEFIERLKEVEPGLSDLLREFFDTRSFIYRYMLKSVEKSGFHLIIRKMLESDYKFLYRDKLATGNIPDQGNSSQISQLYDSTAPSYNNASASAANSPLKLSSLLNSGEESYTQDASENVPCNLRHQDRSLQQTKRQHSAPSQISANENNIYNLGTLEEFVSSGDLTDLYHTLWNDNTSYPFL
Experiment: PBM E-score (8-mer binding enrichment) (E-score (-0.5 to 0.5)); higher = stronger / more preferred TF binding
Details: protein concentration: 200 nM; construct: GST-full length
Over roughly 33,000 sequences, “E-score (-0.5 to 0.5)” has its median near -0.035; the highest 2% begin near 0.35. What follows is part of a selection rich in the highest values, with near analogues and random picks from the rest.
The answer should be a number; do not append a unit.

## Input Entry `ATGGGCCG` has what PBM E-score?
## Output 0.0292

## Input // query: `CTCAACTA`
## Output -0.0622

## Input // next record `CCCAACCG`
## Output 0.00518

## Input Try `ATTCAAAA` next.
## Output 0.0638

## Input // same read-out, input: `CCGGATAG`
## Output 0.347

## Input Same for `GCGGATCA`
## Output 0.296

## Input Next entry: `CTGGAATC`
## Output 0.02

## Input Also check `CCAGGTTA`
## Output -0.0429

## Input Try this sequence next: `ATCGTTTG`
## Output 0.0176

## Input Please do the same for `CGAAAGCC` as well.
## Output -0.105

## Input Next record, please: `GATGGAAC`
## Output 0.06

## Input Similarly, `ATGCGCGG` ?
## Output 0.355

## Input `AGGAATGA` , same question.
## Output -0.0139

## Input Cool, now `CGCACCAG`
## Output 0.133

## Input Field entry: `ACTGCCCG`
## Output 0.179

## Input Okay, and `CCCAAGAA` ?
## Output -0.0373

## Input Same lookup for `ATGCGCGA` , please.
## Output 0.0846

## Input Also check `AGGGATTC`
## Output -0.0434

## Input Same again, this time with `ATTCCCGA`
## Output 0.212

## Input One more sequence: `CCGGAGCG`
## Output 0.37

## Input Another sequence to check: `CCGCGCGC`
## Output 0.332

## Input Next sequence: `ATTCCTGC`
## Output 0.221

## Input Try `CGGGAATC` next.
## Output 0.334

## Input Another sequence to check: `CGCGGGTA`
## Output 0.363

## Input Consider next the sequence `CAAGGAAC` in the same way.
## Output 0.161

## Input Same for `ACGGACCT`
## Output 0.275

## Input Repeat with `ACTCCCCG`
## Output 0.306

## Input Then this sequence: `ACGGAGCG`
## Output 0.337

## Input # repeat for `ACGGACCA`
## Output 0.359

## Input Similarly, `CATGGAAC` ?
## Output -0.0483

## Input Repeat with `CACGGAAG`
## Output 0.386

## Input Same question for `ATCCGCGC` please.
## Output 0.309

## Input Okay, and `TAAGCCCA` ?
## Output -0.113

## Input For `GCGGAGCA` then?
## Output 0.304

## Input Then this sequence: `GGCGAGCA`
## Output 0.0206

## Input Same again, this time with `ATTCCAGC`
## Output 0.0377

## Input Item: `AGACTACT`
## Output -0.173

## Input What do we get for `CTGAGGAC` ?
## Output -0.0292

## Input Another: `GAGACTCA`
## Output -0.204

## Input Also need `CTAGCATC` , thanks.
## Output -0.172

## Input Then what about the sequence `ACCTCTTC` ?
## Output -0.0577

## Input Further, for `ACCCGGAA` ?
## Output 0.456

## Input Could you do the same for `GCGGAGCC` , please?
## Output 0.296

## Input Next sequence: `CAACTTCC`
## Output 0.225

## Input Further, for `CACAGAAG` ?
## Output -0.109

## Input Same question, `ATCCGCAG` this time
## Output 0.316

## Input Record: `CCGGAGCA`
## Output 0.401

## Input For `ATTCCCCG` then?
## Output 0.28

## Input Here is the next sequence: `CTGAATGC`
## Output -0.0711

## Input Thanks! And `AGAAAATA` ?
## Output 0.0181

## Input Queued: `CTTTCTAC`
## Output -0.16

## Input Please answer likewise for `AATATTCA`
## Output 0.0722

## Input Query `GACGGAAC` next
## Output 0.475

## Input Also check `CGGGATGA`
## Output 0.369

## Input // same read-out, input: `CCGGAGCC`
## Output 0.403

## Input // next record `ATTCCCGG`
## Output 0.393

## Input Check `TCGGAGCA` too.
## Output 0.28

## Input Next sequence: `ACCTTTCT`
## Output -0.129

## Input Try the sequence `AGCGGGCA`
## Output -0.048

## Input Then this sequence: `CAGGATCG`
## Output 0.0205

## Input Now the sequence `GGCCGATA`
## Output 0.0764

## Input Item: `CGGGATCC`
## Output 0.417

## Input How about this sequence: `ATTCCGGG`
## Output 0.458

## Input Please give the result for `ACTGGGCT` too.
## Output 0.0297

## Input Now this one: `GCGGACCA`
## Output 0.366

## Input Ok, now `GCGCGCGC`
## Output 0.388

## Input What do you get for `GCCCGGAA` ?
## Output 0.459

## Input Request: `CCGCGCGG`
## Output 0.473

## Input And for `CAAGGAAG` ?
## Output -0.0209

## Input Item: `CTGGATTC`
## Output 0.105

## Input Field entry: `ACCCGGAT`
## Output 0.31

## Input Now consider `ACTCCCGA` and answer again.
## Output 0.0347

## Input And then `CCGCGCGA` , what is it?
## Output 0.303

## Input What do you get for `CTTCAAAG` ?
## Output -0.275

## Input Same again, this time with `ACGGATCC`
## Output 0.445

## Input Same question for `AGCGGGTA` please.
## Output 0.0103

## Input Input `ATTCCTGG`
## Output 0.0168

## Input Entry `ACGGACAC` please
## Output 0.321

## Input Follow-up item: `ACGGATCT`
## Output 0.271

## Input Would you mind doing `CGCACAAA` as well?
## Output 0.0204

## Input Query `TACGGCCA` next
## Output -0.0624

## Input Also, `AAGATGAC` please.
## Output -0.202

## Input Further, for `ACGGAGCC` ?
## Output 0.305

## Input Again, but for `AGCGGGCC`
## Output 0.057

## Input Also, `CAACTTTA` please.
## Output -0.0602
